- method notes: 384-well plate pilot, post-Golgi transport modulator project, inhibition of yeast transport mutant growth (AID 636)
- test context: absorbance 615 nm, about 18 h, stronger effect = higher value
The following molecules are listed with their measured inhibition values.
Answer with a number only, understood to be in %.

In the examples that follow, each entry is paired with its recorded inhibition.
Cn1nnnc1SCC(=O)N1CCN(c2cccc(Cl)c2)CC1
-1.43
CCOC(=O)c1ccccc1NC(=O)CSc1nc2c(c(=O)n(C)c(=O)n2C)n1C
-1.58
CCN(CC)S(=O)(=O)c1ccc(C(=O)Oc2ccc3c(c2)OCO3)cc1
-5.53

QUERY: Provide inhibition value for the following molecule: COc1ccc(C2=NOC(C(=O)NCc3ccc(F)cc3)C2)cc1OC (stereo not drawn)
RESULT: -1.32

QUERY: Provide inhibition value for the following molecule: COc1cccc(C2C(C(=O)c3cc4ccccc4o3)=C(O)C(=O)N2CCN(C)C)c1OC (stereo not drawn)
RESULT: -3.87

QUERY: Provide inhibition value for the following molecule: `O=C(OCC#CCSc1nc2ccccc2s1)c1ccco1`
RESULT: -2.34

* * *

- method notes: reversal of MRP1-mediated doxorubicin resistance, pilot screen, H69AR cells, doxorubicin co-treatment (AID 601)
- test context: H69AR cells + 2 uM doxorubicin, CellTiter-Glo, 72 h; measured here: viability with 2 uM doxorubicin; at 10 µM; stronger effect = lower value
measurement kind: viability

QUERY: Provide viability value for the following molecule: `CCOC(=O)/C(C#N)=C1\Nc2ccccc2N=C1N(CC(C)C)CC(C)C`
RESULT: 89.6%

QUERY: Provide viability value for the following molecule: `O=C(OCc1cc2ccccc2[nH]c1=O)c1ccncc1`
RESULT: 89.7%

QUERY: Provide viability value for the following molecule: `O=C(c1cc2cc(Cl)cc(Cl)c2oc1=O)N1CCOCC1`
RESULT: 87.7%

QUERY: Provide viability value for the following molecule: Cc1ccc(-c2noc(C3CCCN(C(=O)c4ccccc4)C3)n2)o1 (centres undefined)
RESULT: 91%

* * *

- method notes: growth suppression of yeast trafficking mutant, preliminary HTS, modulators of trafficking downstream of Golgi apparatus project, 1536-format plate, OD 615 nm (AID 637)
- test context: yeast transport mutant growth, absorbance 615 nm, 18 h
The source made the active and inactive calls. Cut-off read from the data, not from the text of the source: active = inhibition above about 30%; inactive = the rest.
Hi there, use one of these labels in your reply, thanks! active, inactive

Answered examples (5):
Cc1nc(SCC(=O)N2CCC(C(N)=O)CC2)n[nH]1
inactive
CCCCOc1ccc(C(=O)Nn2cnnc2)cc1
inactive
CCOC(=O)CSc1nnc([C@H](C)NC(=O)OC(C)(C)C)o1
inactive
O=C(Cn1c(=O)n(Cc2ccc3c(c2)OCO3)c(=O)c2ccccc21)N1CCCc2ccccc21
inactive
CCOC(=O)C1=C(NC#N)OC(C)=C(C)C1c1ccc(O)cc1 (stereo unspecified)
inactive

QUERY: # outcome recorded in this test, key = `CCCC(=O)Nc1cccc(NC(=O)CN2CCN(c3ccccc3OC)CC2)c1`
RESULT: inactive

QUERY: # outcome recorded in this test, key = `CCN(CC)S(=O)(=O)c1ccc(NC(=O)CN(c2cccc(F)c2)S(C)(=O)=O)cc1`
RESULT: inactive

QUERY: # outcome recorded in this test, key = `Cc1c(Cl)cccc1N1C(=O)c2ccccc2C1=O`
RESULT: inactive

QUERY: # outcome recorded in this test, key = `COc1ccc(-n2c(SCC(=O)c3c(N)n(C)c(=O)n(C)c3=O)nc3ccccc32)cc1`
RESULT: inactive

QUERY: # outcome recorded in this test, key = `CCOC(=O)CNC(=O)CSc1ncnc2c1cnn2Cc1ccccc1`
RESULT: inactive

QUERY: # outcome recorded in this test, key = `CCOc1ccc(CN2CCN(c3cc(C)nc4c5c(C)cc(C)nc5nn34)CC2)cc1`
RESULT: inactive

QUERY: # outcome recorded in this test, key = `N#Cc1cc2sc3nnc(-c4ccncc4)n3c2cc1C#N`
RESULT: inactive

QUERY: # outcome recorded in this test, key = `CC1(C)CC(=O)c2cc(OCC(=O)NCCCN3CCN(c4ccccc4F)CC3)ccc2O1`
RESULT: inactive

QUERY: # outcome recorded in this test, key = `CCOc1ccc(NC(=O)CSc2nnnn2CC(=O)O)cc1`
RESULT: inactive

QUERY: # outcome recorded in this test, key = `c1ccc2c(c1)[nH]c1c(N3CCC4(CC3)OCCO4)ncnc12`
RESULT: inactive

QUERY: # outcome recorded in this test, key = `CSc1nnc2n(CCc3ccccc3)c(=O)c3c4c(sc3n12)CCCC4`
RESULT: inactive

QUERY: # outcome recorded in this test, key = `CCCn1c(SCC(=O)N2CCN(c3ccccc3)CC2)nc2ccccc2c1=O`
RESULT: active

QUERY: # outcome recorded in this test, key = `Cc1ccc(-n2c(=O)[nH]c3c(C(N)=O)nc(CC(C)C)nc32)cc1`
RESULT: inactive

QUERY: # outcome recorded in this test, key = `CCOc1ccc(Nc2nc(Cc3nnc(SCC(N)=O)o3)cs2)cc1`
RESULT: inactive

QUERY: # outcome recorded in this test, key = Cc1noc(COc2ccccc2OCC(O)CNC(C)(C)C)n1 (stereo unspecified)
RESULT: inactive

QUERY: # outcome recorded in this test, key = `O=c1oc2ccccc2c2nccnc12`
RESULT: inactive
